Test system: Klebsiella aerogenes DSM 30053
ASSAY PROCEDURE: fold change of Putrescine concentration vs plate DMSO controls (fold change (ratio)); higher = more amine produced, active = hit call of the paper (significant change in both replicates, either direction)
CONDITION NOTES: incubation time: 27 h, anaerobic, 37 °C
Structures can show the parent of a compound that is named as a salt.
Property: fold change of Putrescine concentration; scope: individual molecules
Answer using only a numeral; do not append any unit.

Sample answers from the record:
CCOC(=O)[C@H](CCc1ccccc1)N[C@@H](C)C(=O)N1Cc2ccccc2C[C@H]1C(=O)O [Quinapril hydrochloride] (20 µM) :: 1.04
CCC[C@@H]1C[C@@H](C(=O)N[C@@H]([C@H]2O[C@H](SC)[C@H](O)[C@@H](O)[C@H]2O)[C@@H](C)O)N(C)C1 [Lincomycin hydrochloride] (20 µM) :: 0.682

Entry COc1cc([S+](C)[O-])ccc1-c1nc2cccnc2[nH]1 (stereo not drawn) [Sulmazole] (20 µM) needs its fold change of Putrescine concentration filled in; supply it.
0.952
